The reported measurements were obtained from paper PMC2957921.

# tested.target: hPXR (Homo sapiens)
# Sequence (O75469 whole entry): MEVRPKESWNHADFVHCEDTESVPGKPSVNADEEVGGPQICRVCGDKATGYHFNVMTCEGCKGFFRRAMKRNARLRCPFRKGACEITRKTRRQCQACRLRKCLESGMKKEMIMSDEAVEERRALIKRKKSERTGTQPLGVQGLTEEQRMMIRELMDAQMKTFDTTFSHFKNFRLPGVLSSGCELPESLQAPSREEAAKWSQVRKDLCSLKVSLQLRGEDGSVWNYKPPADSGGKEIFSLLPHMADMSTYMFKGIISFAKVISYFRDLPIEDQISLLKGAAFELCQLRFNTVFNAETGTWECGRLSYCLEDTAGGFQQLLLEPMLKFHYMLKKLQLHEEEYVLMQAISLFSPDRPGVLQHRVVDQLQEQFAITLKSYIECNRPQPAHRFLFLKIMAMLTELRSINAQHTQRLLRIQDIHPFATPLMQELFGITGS
# assay.remarks: hPXR luciferase-based reporter assay in HepG2 cells
# experimental.context: HepG2 cells, luciferase reporter

{"compound": "CC1(C)C(C=C(Cl)Cl)C1C(=O)OC(C#N)c1ccc(F)c(Oc2ccccc2)c1 (stereo not drawn) [β-Cyfluthrin]", "HepG2 hPXR agonist class": "S (S, EC50 < 10 μM)"}
{"compound": "CC1(C)C(C=C(Cl)Cl)C1C(=O)OCc1cccc(Oc2ccccc2)c1 (stereo not shown) [Permethrin]", "HepG2 hPXR agonist class": "5.4 (S) (S, EC50 < 10 μM)"}
{"compound": "CCCCC(CC)COC(=O)c1ccccc1C(=O)OCC(CC)CCCC (stereo not shown) [Diethylhexyl phthalate]", "HepG2 hPXR agonist class": "S (S, EC50 < 10 μM)"}
{"compound": "CC(C)[C@H](C(=O)O[C@H](C#N)c1cccc(Oc2ccccc2)c1)c1ccc(Cl)cc1 [Esfenvalerate]", "HepG2 hPXR agonist class": "S (S, EC50 < 10 μM)"}
